Biological target: METTL3/METTL14 (Homo sapiens, UniProt Q86U44)
Sequence (Q86U44 whole entry, species assumed): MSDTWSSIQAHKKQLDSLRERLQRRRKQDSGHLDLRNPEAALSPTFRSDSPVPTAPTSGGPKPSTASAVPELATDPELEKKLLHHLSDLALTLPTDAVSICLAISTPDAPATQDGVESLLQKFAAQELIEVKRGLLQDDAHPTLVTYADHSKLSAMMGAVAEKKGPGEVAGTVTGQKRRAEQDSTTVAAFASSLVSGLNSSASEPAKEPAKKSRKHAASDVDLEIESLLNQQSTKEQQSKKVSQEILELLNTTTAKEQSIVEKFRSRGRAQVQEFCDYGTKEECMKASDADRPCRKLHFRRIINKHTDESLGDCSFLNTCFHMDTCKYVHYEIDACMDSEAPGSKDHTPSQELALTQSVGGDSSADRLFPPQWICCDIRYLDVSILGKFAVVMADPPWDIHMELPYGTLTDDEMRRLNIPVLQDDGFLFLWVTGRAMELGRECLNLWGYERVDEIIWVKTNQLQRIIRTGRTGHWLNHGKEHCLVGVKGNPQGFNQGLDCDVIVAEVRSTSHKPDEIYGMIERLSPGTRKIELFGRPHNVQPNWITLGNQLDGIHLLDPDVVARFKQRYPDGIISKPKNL
Sequence (Q9HCE5 whole entry partner, species assumed): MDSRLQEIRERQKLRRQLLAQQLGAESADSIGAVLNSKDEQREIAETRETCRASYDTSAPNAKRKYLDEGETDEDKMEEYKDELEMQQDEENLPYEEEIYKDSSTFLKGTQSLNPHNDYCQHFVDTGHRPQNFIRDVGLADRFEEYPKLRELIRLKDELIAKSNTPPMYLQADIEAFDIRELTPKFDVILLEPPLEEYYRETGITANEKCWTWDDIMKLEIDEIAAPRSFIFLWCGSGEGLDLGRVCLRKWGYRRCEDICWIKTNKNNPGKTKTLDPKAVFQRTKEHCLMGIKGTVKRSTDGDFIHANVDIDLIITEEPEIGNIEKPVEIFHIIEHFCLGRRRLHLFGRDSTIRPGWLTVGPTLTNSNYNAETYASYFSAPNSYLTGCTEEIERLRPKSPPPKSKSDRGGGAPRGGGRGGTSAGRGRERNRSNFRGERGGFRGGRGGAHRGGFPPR
Experiment: METTL3-14 Standard Enzyme Assay (METTL3 biochemical assay)
Conditions: METTL3 biochemical assay; read-out: METTL3 IC50
Kindly supply the reported IC50 values for the records listed here.

Known results for molecules:
Nc1ccc2ccc(CO[C@H]3C[C@@H](n4ccc5c(N)ncnc54)[C@H](O)[C@@H]3O)cc2n1 [I-139]    < 10 nM
Nc1ncnc2c1ccn2[C@@H]1C[C@H](CCc2ccc3[nH]ncc3c2)[C@@H](O)[C@H]1O [I-106]    > 1000 nM
CNc1ccc2ccc(OC[C@H]3O[C@@H](n4cc([C@H]5CCCO5)c5c(N)ncnc54)[C@@H](F)[C@@H]3O)cc2n1 [I-151]    < 10 nM
Nc1ncnc2c1ccn2[C@@H]1O[C@H](COc2ccc3ccc(NC4CCC4)nc3c2)[C@@H](O)[C@@H]1F [I-185]    < 10 nM

State the recorded IC50 for every item in the following list.
1. Nc1ncnc2c1c([C@@H]1CCCO1)cn2[C@@H]1O[C@H](COc2ccc3ccc(N4CCC4)nc3c2)[C@@H](O)[C@@H]1F [I-224]
2. Nc1ncnc2c1ccn2[C@@H]1O[C@H](COc2ccc3ccc(N4CC(N)C4)nc3c2)[C@@H](O)[C@@H]1F [I-188]
3. Nc1ccc2ccc(OC[C@H]3C[C@@H](n4ccc5c(NCCc6ccccc6)ncnc54)[C@H](O)[C@@H]3O)cc2n1 [I-91]

["< 10 nM", "10 to 100 nM", "> 1000 nM"]

---

Target: PRMT5-MEP50 (Homo sapiens, UniProt O14744)
Sequence (O14744 whole entry): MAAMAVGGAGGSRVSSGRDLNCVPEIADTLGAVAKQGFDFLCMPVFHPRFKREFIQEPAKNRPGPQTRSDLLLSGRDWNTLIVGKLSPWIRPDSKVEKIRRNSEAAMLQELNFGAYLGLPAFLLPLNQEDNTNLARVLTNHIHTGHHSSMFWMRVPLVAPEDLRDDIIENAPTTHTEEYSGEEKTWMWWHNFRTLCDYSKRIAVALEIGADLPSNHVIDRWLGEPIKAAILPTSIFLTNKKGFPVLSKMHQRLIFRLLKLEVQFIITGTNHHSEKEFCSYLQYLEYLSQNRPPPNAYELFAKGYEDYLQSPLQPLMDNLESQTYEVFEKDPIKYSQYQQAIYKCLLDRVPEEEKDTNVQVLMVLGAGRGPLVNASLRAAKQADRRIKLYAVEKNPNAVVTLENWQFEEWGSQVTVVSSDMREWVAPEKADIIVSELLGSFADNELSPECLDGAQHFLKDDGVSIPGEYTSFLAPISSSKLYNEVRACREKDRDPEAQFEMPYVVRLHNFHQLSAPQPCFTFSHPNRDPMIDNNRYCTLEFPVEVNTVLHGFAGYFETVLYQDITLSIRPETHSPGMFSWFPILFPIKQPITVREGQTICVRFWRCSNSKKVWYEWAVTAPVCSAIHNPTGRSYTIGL
Sequence (Q9BQA1 whole entry partner): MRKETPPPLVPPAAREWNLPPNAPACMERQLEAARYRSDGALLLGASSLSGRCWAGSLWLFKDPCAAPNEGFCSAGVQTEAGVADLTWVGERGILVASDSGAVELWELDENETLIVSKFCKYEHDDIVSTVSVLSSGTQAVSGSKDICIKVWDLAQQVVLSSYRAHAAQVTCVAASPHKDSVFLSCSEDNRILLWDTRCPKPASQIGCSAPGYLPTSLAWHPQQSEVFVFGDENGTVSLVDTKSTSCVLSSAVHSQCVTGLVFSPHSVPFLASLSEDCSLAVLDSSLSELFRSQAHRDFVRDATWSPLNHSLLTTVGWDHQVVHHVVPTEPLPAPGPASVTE
Assay: PRMT5 Assay (PRMT5 biochemical assay)
Settings: PRMT5 biochemical assay; read-out: PRMT5 IC50
pIC50: −log10 of the molar value.
Kindly supply the reported pIC50 values for the records listed here.

Known results for compounds:
Nc1ccc2ccc(OC[C@H]3C[C@@H](n4ccc5c(N)ncnc54)[C@H](O)[C@@H]3O)cc2n1    > 8.00
Nc1ncnc2c1ccn2[C@@H]1C[C@H](CCc2ccc3ccc(Nc4ccccc4)nc3c2)[C@@H](O)[C@H]1O    > 8.00
Cc1nc(N)c2ccn([C@@H]3C[C@H](CCc4ccc5ccc(N)nc5c4)[C@@H](O)[C@H]3O)c2n1    > 8.00

State the recorded pIC50 for every item in the following list.
1. Nc1ncnc2c1ccn2[C@@H]1C[C@H](CCc2ccc3cccnc3n2)[C@@H](O)[C@H]1O
2. Cc1cc2c(NCCc3ccccc3)ncnc2n1[C@@H]1C[C@H](CCc2ccc3ccc(N)nc3c2)[C@@H](O)[C@H]1O
3. CCNc1ccc2ccc(OC[C@H]3O[C@@H](n4ccc5c(N)ncnc54)[C@@H](F)[C@@H]3O)cc2n1
4. CNc1ccc2ccc(OC[C@H]3O[C@@H](n4cc(C)c5c(N)ncnc54)[C@@H](F)[C@@H]3O)cc2n1

["> 8.00", "> 8.00", "7.00 to 8.00", "7.00 to 8.00"]

---

Kindly supply the reported pIC50 values for the records listed here.
Target: METTL3/METTL14 (Homo sapiens, UniProt Q86U44)
Experiment: METTL3-14 Standard Enzyme Assay (METTL3 biochemical assay)
Settings: METTL3 biochemical assay; read-out: METTL3 IC50
Description: Assays were performed in a 25 μl-volume in 384-well V-bottom polypropylene microplates (Greiner Bio-One, cat. No. 781280) at ambient temperature. Optimized 1× assay buffer was 20 mM HEPES pH 7.5, 50 mM KCl, 250 μM MgCl2, 1 mM DTT, 0.01% Tween, 0.01% BSG, 0.004 U/μl RNAseOUT (cat. No. 10777019, ThermoFisher Scientific, Waltham, Mass.). […] Following two washing cycles with 0.1% Tween-20, the plates were sealed and read on a TopCount (PerkinElmer, Waltham, Mass.) plate-based scintillation counter. […]
pIC50: −log10 of the molar value.

Known results for compounds:
Nc1ncnc2c1ccn2[C@@H]1C[C@H](COc2ccc3ccc(N4CCCC4)nc3c2)[C@@H](O)[C@H]1O    6.00 to 7.00
CNc1ccc2ccc(OC[C@H]3O[C@@H](n4cc(Br)c5c(N)ncnc54)[C@@H](F)[C@@H]3O)cc2n1    > 8.00
Cc1cn2ccc(CC[C@H]3C[C@@H](n4ccc5c(N)ncnc54)[C@H](O)[C@@H]3O)cc2n1    < 6.00
CCNc1ccc2ccc(CC[C@H]3O[C@@H](n4ccc5c(N)ncnc54)[C@H](O)[C@@H]3O)cc2n1    7.00 to 8.00
Nc1ccc2ccc(CC[C@H]3C[C@@H](n4cc([C@@H]5CCOC5)c5c(N)ncnc54)[C@H](O)[C@@H]3O)cc2n1    6.00 to 7.00
CNc1ccc2ccc(OC[C@H]3O[C@@H](n4cc(C5CCN(C)CC5)c5c(N)ncnc54)[C@@H](F)[C@@H]3O)cc2n1    7.00 to 8.00
CNc1ccc2cc(OC[C@H]3O[C@@H](n4cc(Br)c5c(N)ncnc54)[C@H](O)[C@@H]3O)ccc2n1    7.00 to 8.00
CNc1ccc2ccc(CC[C@H]3C[C@@H](n4ccc5c(N)ncnc54)[C@H](O)[C@@H]3O)cc2n1    > 8.00
CNc1ccc2ccc(OC[C@H]3O[C@@H](n4cc(C(F)(F)F)c5c(N)ncnc54)[C@@H](F)[C@@H]3O)cc2n1    7.00 to 8.00
Nc1ncnc2c1ccn2[C@@H]1O[C@H](COc2ccc3ccc(N4CCCC4)nc3c2)[C@@H](O)[C@H]1O    7.00 to 8.00

State the recorded pIC50 for every item in the following list.
1. Nc1ncnc2c1ccn2[C@@H]1C[C@H](CCc2cccc(=O)[nH]2)[C@@H](O)[C@H]1O
2. CC1(C)COC(c2cn([C@@H]3O[C@H](COc4ccc5ccc(N6CCC6)nc5c4)[C@@H](O)[C@@H]3F)c3ncnc(N)c23)=N1
3. COc1cccc(CC[C@H]2C[C@@H](n3ccc4c(N)ncnc43)[C@H](O)[C@@H]2O)n1
4. NC(=O)Nc1cccc(CC[C@H]2C[C@@H](n3ccc4c(N)ncnc43)[C@H](O)[C@@H]2O)c1
5. CNc1ccc2cc(F)c(CC[C@H]3C[C@@H](n4ccc5c(N)ncnc54)[C@H](O)[C@@H]3O)cc2n1

["< 6.00", "> 8.00", "< 6.00", "< 6.00", "7.00 to 8.00"]

---

Kindly supply the reported pIC50 values for the records listed here.
Molecular target: PRMT5-MEP50 (Homo sapiens, UniProt O14744)
Assay: PRMT5 Assay (PRMT5 biochemical assay)
Conditions: PRMT5 biochemical assay; read-out: PRMT5 IC50
pIC50: −log10 of the molar value.

Known results for compounds:
Nc1ncnc2c1ccn2[C@@H]1C[C@H](CCc2ccc3cc(C#Cc4ccccc4)cnc3c2)[C@@H](O)[C@H]1O    7.00 to 8.00
CN(C[C@H]1C[C@@H](n2ccc3c(N)ncnc32)[C@H](O)[C@@H]1O)c1ccc2ccc(N)nc2c1    > 8.00
CCCc1cn([C@@H]2C[C@H](CCc3ccc4ccc(N)nc4c3)[C@@H](O)[C@H]2O)c2ncnc(N)c12    > 8.00
CCNc1ccc2ccc(OC[C@H]3O[C@@H](n4ccc5c(N)ncnc54)[C@H](O)[C@@H]3O)cc2n1    > 8.00

State the recorded pIC50 for every item in the following list.
1. Nc1ncnc2c1ccn2[C@@H]1C[C@H](CCc2ccc3cccnc3c2)[C@@H](O)[C@H]1O
2. CNc1ccc2ccc(OC[C@H]3O[C@@H](n4cc(C5=CCN(C)CC5)c5c(N)ncnc54)[C@@H](F)[C@@H]3O)cc2n1
3. Nc1ncnc2c1ccn2[C@@H]1C[C@H](CCc2ccc3c(OCC4CC4)ccnc3c2)[C@@H](O)[C@H]1O

["> 8.00", "6.00 to 7.00", "> 8.00"]

---

Tested on: MOLM-13 cells
Experiment: MOLM-13 48 Hour Cell Proliferation Assay
Type: cell-based
Settings: Homo sapiens
Observation type: IC50

Known results for compounds:
CNc1ccc2ccc(OC[C@H]3O[C@H](n4cc(C(O)C5CC5)c5c(N)ncnc54)[C@H](O)[C@@H]3O)cc2n1 (stereo partly shown)    > 10000 nM
CN(CCO)c1ccc2ccc(OC[C@H]3O[C@@H](n4cc(-c5ccn(C)n5)c5c(N)ncnc54)[C@@H](F)[C@@H]3O)cc2n1    1000 to 10000 nM
CNc1ccc2ccc(OC[C@H]3O[C@@H](n4cc(-c5ncco5)c5c(N)ncnc54)[C@@H](F)[C@@H]3O)cc2n1    < 1000 nM
CNc1ccc2ccc(OC[C@H]3O[C@@H](n4cc(-c5ccn(C6COC6)n5)c5c(N)ncnc54)[C@@H](F)[C@@H]3O)cc2n1    1000 to 10000 nM
Cn1ccc(-c2cn([C@@H]3O[C@H](COc4ccc5ccc(N6CC(O)C6)nc5c4)[C@@H](O)[C@@H]3F)c3ncnc(N)c23)n1    1000 to 10000 nM

State the recorded IC50 for every item in the following list.
1. CNc1ccc2ccc(OC[C@H]3O[C@@H](n4cc(Cl)c5c(N)ncnc54)[C@H](O)[C@@H]3O)cc2n1
2. Nc1ncnc2c1c(-n1cccn1)cn2[C@@H]1O[C@H](COc2ccc3ccc(N4CCC4)nc3c2)[C@@H](O)[C@@H]1F
3. CN(C)c1ccc2ccc(OC[C@H]3O[C@@H](n4cc(C5CCCC5)c5c(N)ncnc54)[C@H](O)[C@@H]3O)cc2n1
4. CNc1ccc2ccc(OC[C@H]3O[C@@H](n4cc(F)c5c(N)ncnc54)[C@@H](F)[C@@H]3O)cc2n1

["1000 to 10000 nM", "< 1000 nM", "1000 to 10000 nM", "1000 to 10000 nM"]
